Values were extracted from ChEMBL document CHEMBL4831510.

Measured IC50 accompanies every entry in the list below.
molecular target: Cholinesterase (Equus caballus, UniProt P81908)
Sequence (P81908 whole entry): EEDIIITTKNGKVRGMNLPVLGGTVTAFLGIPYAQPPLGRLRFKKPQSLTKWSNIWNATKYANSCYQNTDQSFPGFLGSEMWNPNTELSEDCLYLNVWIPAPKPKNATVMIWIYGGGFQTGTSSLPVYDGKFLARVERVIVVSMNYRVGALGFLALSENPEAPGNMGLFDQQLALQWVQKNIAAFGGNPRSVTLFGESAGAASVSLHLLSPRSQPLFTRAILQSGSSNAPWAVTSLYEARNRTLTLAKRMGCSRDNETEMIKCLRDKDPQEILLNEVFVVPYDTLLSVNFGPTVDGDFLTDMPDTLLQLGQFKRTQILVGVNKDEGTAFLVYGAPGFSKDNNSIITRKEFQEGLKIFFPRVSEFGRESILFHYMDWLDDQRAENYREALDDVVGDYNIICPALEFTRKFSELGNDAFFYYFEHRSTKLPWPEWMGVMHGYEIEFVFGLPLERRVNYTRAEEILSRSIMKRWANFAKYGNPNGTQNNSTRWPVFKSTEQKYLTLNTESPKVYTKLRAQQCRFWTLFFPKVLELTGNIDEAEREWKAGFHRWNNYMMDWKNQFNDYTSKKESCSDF
Numeric only. Scale: nM

Here's what some known entries look like.
compound.smiles	IC50 [nM]
C=C(C)[C@@H]1CCC(C)=C[C@H]1c1c(O)cc(CCCCC)cc1OC(=O)N1CCOCC1	1890
C=C(C)[C@@H]1CCC(C)=C[C@H]1c1c(O)cc(CCCCC)cc1OC(=O)N1CCCC1	390
C=C(C)[C@@H]1CCC(C)=C[C@H]1c1c(OC(=O)N2CCCC2)cc(CCCCC)cc1OC(=O)N1CCCC1	530
C=C(C)[C@@H]1CCC(C)=C[C@H]1c1c(O)cc(CCCCC)cc1OC(=O)N(C)CC	77
C=C(C)[C@@H]1CCC(C)=C[C@H]1c1c(O)cc(CCCCC)cc1OC(=O)N(C)Cc1ccc(Br)cc1	7.3

Value of IC50 reported for the compound C=C(C)[C@@H]1CCC(C)=C[C@H]1c1c(OC(=O)N(C)Cc2ccccc2)cc(CCCCC)cc1OC(=O)N(C)Cc1ccccc1 is 380

Field IC50 (entry C=C(C)[C@@H]1CCC(C)=C[C@H]1c1c(O)cc(CCCCC)cc1OC(=O)N(C)Cc1cccc(Br)c1 ) reads 2400

Query C=C(C)[C@@H]1CCC(C)=C[C@H]1c1c(O)cc(CCCCC)cc1OC(=O)N(C)Cc1cccc(F)c1 yields IC50 of 4870

Field IC50 (entry C=C(C)[C@@H]1CCC(C)=C[C@H]1c1c(O)cc(CCCCC)cc1OC(=O)N1CCCCC1 ) reads 530

// field: IC50; key: C=C(C)[C@@H]1CCC(C)=C[C@H]1c1c(O)cc(CCCCC)cc1OC(=O)N(C)Cc1cccc(Cl)c1 ; value = 2820
